Origin of measurements: the supplement of paper PMC10567573

assay: protein stability index of a GFP-peptide fusion (GPS, HEK-293T) (PSI 1-6); higher = more stable; settings: treatment: MLN4924 1 uM, 8 h; c terminus: a fixed tail appended;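 also: 24-mer peptide tiles fused after GFP, lentivirally expressed, FACS-sorted into six equal bins by GFP/DsRed ratio, decoded by Illumina sequencing, PSI is the read-weighted mean bin number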
Please mark Criterion met if the recorded protein stability index is equal to or greater than 4, and Criterion not met if it falls below.

{"record_sequence": "SSQERKFMEERELLGQDEETAMRK [RSPH3]", "class": "Criterion met"}
{"record_sequence": "TLTREQTERLSHQITSRVVSAATQ [RTN2]", "class": "Criterion not met"}
{"record_sequence": "VGEKNCTGPPCDRQWTVSDWGPCS [ADAMTSL2]", "class": "Criterion not met"}
{"record_sequence": "REWRCCPGHSGVSCEEVAASSASL [EMID1]", "class": "Criterion not met"}
{"record_sequence": "KVTRLKSLALDIDRDAEDQNRYLD [BET1L]", "class": "Criterion met"}

Prompt: Say whether EISVDSLDFSKKILHTAWHPSENI [PPP2R2B] shows protein stability index of 4 or more.
Response: Criterion not met

Prompt: Say whether GRFCGQQNPPVIKSSGRFLWIKFF [NETO1] shows protein stability index of 4 or more.
Response: Criterion not met
